# fold improvement of kd over 28A6 (parental) annotations
- System: T1, eukaryotically produced human IL-6 (human, UniProt P05231 30-212)
- T1 construct: Immobilised on the Biacore chip; also called Euk IL-6; EUK IL-6 (3-1)
- Experiment Description: SPR (Biacore), periplasmic Fab
Use fold as the unit, but write only the number.

Here's what some known entries look like.
| Binder | Assay Result |
| --- | --- |
| 48H1 (Fab, V domains shown, Periplasmic Fab; Suffix 'g2, R4' not explained; also called 48H1g2, R4) VH: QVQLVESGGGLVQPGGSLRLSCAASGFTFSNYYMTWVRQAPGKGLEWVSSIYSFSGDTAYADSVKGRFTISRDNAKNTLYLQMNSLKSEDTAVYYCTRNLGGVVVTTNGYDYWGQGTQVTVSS VL: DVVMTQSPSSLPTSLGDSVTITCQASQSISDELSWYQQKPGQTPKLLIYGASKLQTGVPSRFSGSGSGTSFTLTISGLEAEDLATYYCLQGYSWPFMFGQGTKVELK | 1.54 |
| 55E10 (Fab, V domains shown, Periplasmic Fab; Suffix 'g1' not explained; also called 55E10g1) VH: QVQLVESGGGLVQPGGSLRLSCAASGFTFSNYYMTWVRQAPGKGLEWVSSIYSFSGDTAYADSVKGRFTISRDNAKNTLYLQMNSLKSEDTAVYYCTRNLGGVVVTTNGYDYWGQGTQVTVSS VL: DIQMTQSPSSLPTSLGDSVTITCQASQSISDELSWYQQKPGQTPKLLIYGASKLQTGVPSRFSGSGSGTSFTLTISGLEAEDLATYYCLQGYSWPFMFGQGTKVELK | 1.88 |
| 55C11 (Fab, V domains shown, Periplasmic Fab; Suffix 'f' not explained; also called 55C11f) VH: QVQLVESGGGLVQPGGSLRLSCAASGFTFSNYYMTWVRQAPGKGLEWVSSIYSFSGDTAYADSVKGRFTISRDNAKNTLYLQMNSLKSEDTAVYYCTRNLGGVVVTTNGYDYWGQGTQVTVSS VL: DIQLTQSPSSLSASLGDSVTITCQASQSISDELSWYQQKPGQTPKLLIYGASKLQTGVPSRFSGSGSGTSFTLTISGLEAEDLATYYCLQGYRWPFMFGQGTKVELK | 1.62 |

Task: Specify fold improvement of kd over 28A6 (parental) for 55A11 (Fab, V domains shown, Periplasmic Fab; Suffix 'd' of the label not explained; also called 55A11d) VH: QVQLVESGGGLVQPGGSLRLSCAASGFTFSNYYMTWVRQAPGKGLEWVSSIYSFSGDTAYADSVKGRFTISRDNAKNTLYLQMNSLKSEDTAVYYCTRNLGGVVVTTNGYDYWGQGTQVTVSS VL: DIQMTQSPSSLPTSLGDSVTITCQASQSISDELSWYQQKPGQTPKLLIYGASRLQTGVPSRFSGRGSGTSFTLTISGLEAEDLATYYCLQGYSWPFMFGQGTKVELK and stop.
Output: 1.65
